Provenance of the data: patent US8722849B2

test.protocol: Assay (IV) determination of solubility
Assay type: physicochemical
assay.conditions: glycylglycine buffer, pH 4, pH 4.0; 18 hours at room temperature; Table 2; read-out: Solubility pH 4.0
Starred links: 1 amine or outer side, 2 acyl side, 3 side chain; linkers in the order of their positions; H or OH if unused. Positions of bridges follow the written chain, without caps; N, C: chain ends. *: point of attachment. C20 diacid = O=C(O)CCCCCCCCCCCCCCCCCCC(=O)*; γGlu = O=C(O)[C@H](CCC(=O)[*:2])N[*:1]
measured.parameter: solubility at 18 h

{C20 diacid-γGlu}-SSGSSGHCNTATCATQRLAEFLHHSSNNFGPILPPTNVGSNTY-NH2 (disulfide 8-13 (inferred); C-terminus assumed) [Example 44] | > 200 µM

---

test.protocol: Assay (IV) determination of solubility
Format: physicochemical
assay.conditions: bistrispropane buffer, pH 6, pH 6.0; read-out: Solubility pH 6.0
Method: ASSAY (IV)—Determination of Solubility The polypeptide was dissolved in water at ˜500 nmol/ml and mixed 1:1 with a series of buffers (100 mM glycylglycine pH 3.0, 100 mM glycylglycine pH 4.0, 100 mM glycylglycine pH 5.0, 100 mM bistrispropane pH 6.0, 100 mM bistrispropane pH 6.5, 100 mM bistrispropane pH 7.0, 100 mM bistrispropane pH 7.5, 100 mM bistrispropane pH 8.0). After 18 hours at room temperature the samples were centrifuged and the polypeptide concentration determined by HPLC.
Starred links: 1 amine or outer side, 2 acyl side, 3 side chain; linkers in the order of their positions; H or OH if unused. Positions of bridges follow the written chain, without caps; N, C: chain ends. *: point of attachment. C20 diacid = O=C(O)CCCCCCCCCCCCCCCCCCC(=O)*; γGlu = O=C(O)[C@H](CCC(=O)[*:2])N[*:1]
Each record here notes measured solubility at 18 h.
measured.parameter: solubility at 18 h (µM)

{C20 diacid-γGlu}-SSGSSGHCNTATCATQRLAEFLHHSSNNFGPILPPTNVGSNTY-NH2 (disulfide 8-13 (inferred); C-terminus assumed) [Example 44] | 21
{C20 diacid-γGlu}-SSGSSGCNTATCATQRLAEFLHHSSNNFGPILPPTNVGSNTY-NH2 (disulfide 7-12 (inferred)) [Example 39] | 6
